Test system: BT-549 breast
TEST NAME: NCI-60 one-dose screen, 48 h (100 = growth as untreated, 0 = no growth, -100 = all killed)
ASSAY CONDITIONS: 10 µM unless noted
This is part of a sample that, as a whole, favours compounds with a hit. Of some 83,000 tested, about 20% had one in any assay.
Attribute: growth

{"columns": ["MOLECULE", "SUBJECT OF TEST", "VALUE UNITS", "growth"],
 "data": [
  ["Nc1cccc(SCc2cc3ccccc3[nH]c2=O)c1", "BT-549 breast", "%", 46.7],
  ["COc1ccc(/C=N/NC(=O)Cn2nc(Cc3ccc(OC)cc3)c3onc(C)c3c2=O)cc1", "BT-549 breast", "%", 36.9],
  ["C=C1CC[C@@H]2[C@]3(C)COC(c4cn[nH]c4-c4ccc(F)cc4)O[C@@H]3CC[C@@]2(C)[C@@H]1C/C=C1/C(=O)OCC1O (stereo partly drawn)", "BT-549 breast", "%", -93.4],
  ["Cc1ccc(-c2nc(C#N)c(S(=O)(=O)N3CCN(S(=O)(=O)c4ccccc4)CC3)o2)cc1", "BT-549 breast", "%", -19],
  ["COC(=O)C[C@](O)(CCCC(C)(C)O)C(=O)O[C@H]1C(OC)=C[C@@]23CCCN2CCc2cc4c(cc2[C@@H]13)OCO4", "BT-549 breast", "%", -29.9],
  ["C#CCOc1ccc(/C=N/Nc2nc(-c3cc4cc(Br)ccc4oc3=O)cs2)cc1OC", "BT-549 breast", "%", 48.5],
  ["CN(C)c1nc(NCCNS(=O)(=O)c2ccc(C3=Nc4c(N)nc(N)nc4NC(c4ccc(F)cc4)C3)cc2)nc(Nc2ccc(F)cc2)n1 (stereo not drawn)", "BT-549 breast", "%", 48.7],
  ["O=C(O)c1ccc(-c2ccc(/C=N/NC(=O)c3[nH]c4ccc(Br)cc4c3-c3ccccc3)o2)cc1", "BT-549 breast", "%", -7.86]
]}

====

Test system: SK-MEL-5 melanoma
TEST NAME: NCI-60 one-dose screen, 48 h
ASSAY CONDITIONS: 10 µM unless noted
Procedure: Growth inhibition of the SK-MEL-5 human tumor cell line is measured as a screen for anti-cancer activity. Cells are grown in 96 well plates and exposed to the test compound for 48 hours. Compounds are tested at a single concentration, which is 10^-5 M for most compounds. The reported endpoint is percent growth (GI% or GIPRCNT), where numbers from 0 - 100% represent growth inhibition, and numbers from -100% - 0 represent cell death. For example, a value of 40 represents 60% growth inhibition. […]
The panel holds about 83,000 compounds, 20% with a hit somewhere; the sample as a whole holds those more often. Activity calls are given as the source filed them. Rule for the calls: active = growth percent below 10; inactive = the rest.
Outcome codes: yes (active), no (inactive)

{"columns": ["MOLECULE", "SUBJECT OF TEST", "GROUP LABEL"],
 "data": [
  ["Cc1ncsc1-c1ccc(CNC(=O)[C@@H]2C[C@@H](O)CN2C(=O)[C@@H](NC(=O)C2(F)CC2)C(C)(C)C)c(OCCOCCOCCOCCOc2nc(Nc3cc(S(C)(=O)=O)ccc3N[C@@H](c3cccc4c3OC(F)(F)O4)c3ncccc3Cl)nc(N3CCNCC3)n2)c1", "SK-MEL-5 melanoma", "no"],
  ["Cc1ccc(-c2nc(Nc3ccccc3S(N)(=O)=O)c3ccccc3n2)cc1", "SK-MEL-5 melanoma", "no"],
  ["Brc1ccc(-c2n(Cc3ccc4ccccc4c3)c(-c3ccccc3)c(-c3ccccc3)[n+]2Cc2ccc3ccccc3c2)cc1", "SK-MEL-5 melanoma", "yes"],
  ["CC(C)Sc1nc(NCCc2c[nH]c3ccccc23)c(C#N)c(-c2ccc(F)cc2)n1", "SK-MEL-5 melanoma", "no"],
  ["NC(=S)Nc1cccc(NC(N)=S)c1", "SK-MEL-5 melanoma", "no"],
  ["Cc1ccc(NC(=O)[C@]23CCC(C)(C)CC2C2=CCC4[C@@]5(C)C[C@@H](O)[C@H](O)[C@@](C)(CO)C5CC[C@@]4(C)[C@]2(C)CC3)cc1 (stereo not given in full)", "SK-MEL-5 melanoma", "yes"],
  ["CCN(CC)C(=O)N/C(N)=N/c1nc2ccccc2s1", "SK-MEL-5 melanoma", "yes"],
  ["NS(=O)(=O)c1ccc(-n2cc(-c3cccc(NC(=O)c4cc(C(F)(F)F)cc(C(F)(F)F)c4)c3)nn2)cc1", "SK-MEL-5 melanoma", "no"],
  ["O=C(NN1C(=O)/C(=C/C=C/c2ccc([N+](=O)[O-])o2)SC1=S)c1ccccc1O", "SK-MEL-5 melanoma", "yes"],
  ["CC(C)Sc1nc(NCCc2c[nH]c3ccccc23)c(C#N)c(-c2ccccc2)n1", "SK-MEL-5 melanoma", "yes"],
  ["CC(=O)Nc1cccc(Nc2nccc(N[C@@H](C)c3ccccc3)n2)c1", "SK-MEL-5 melanoma", "yes"],
  ["C=C1CCC2C3(C)COC(c4ccco4)OC3CCC2(C)C1CC(Sc1ccccc1)C1=CCOC1=O (stereo not given)", "SK-MEL-5 melanoma", "no"],
  ["COc1ccc2[nH]cc(-c3cc(N)n4nc(-c5cn(C)c6ccccc56)cc4n3)c2c1", "SK-MEL-5 melanoma", "yes"],
  ["COc1ccc(-c2nc3ccc(C(=O)NN4C(=O)c5ccc([N+](=O)[O-])cc5C4=O)cc3[nH]2)cc1", "SK-MEL-5 melanoma", "no"],
  ["CCOC(=O)C1=C(N)N(c2ccccc2)C2=C(C(=O)CC(C)(C)C2)C1c1cccc(Cl)c1Cl (stereo not given)", "SK-MEL-5 melanoma", "no"],
  ["O=C1CC(Sc2n[nH]c(-c3ccncc3)n2)C(=O)N1c1ccc(Br)cc1 (stereo not given)", "SK-MEL-5 melanoma", "no"],
  ["O=C(/C=C/Nc1ccc2oc(=O)ccc2c1)c1cc2cc(Br)ccc2oc1=O", "SK-MEL-5 melanoma", "no"],
  ["C#CCOc1ccc(/C=N/Nc2nc(-c3cc4cc(OC)ccc4oc3=O)cs2)cc1OC", "SK-MEL-5 melanoma", "no"],
  ["CCN(CC)c1ccc(/C=N/Nc2nc(-c3ccc(C)cc3)cs2)c(O)c1", "SK-MEL-5 melanoma", "no"],
  ["COc1cc(C2CC(c3ccc(S(=O)(=O)NCCNc4nc(Nc5ccc(F)cc5)nc(N(C)C)n4)cc3)=Nc3c(N)nc(N)nc3N2)cc(OC)c1OC (stereo not given)", "SK-MEL-5 melanoma", "no"],
  ["CN(C)c1ccnc(CNCCSC2(c3ccc(C(F)(F)F)cc3)c3ccccc3C=Cc3ccccc32)c1", "SK-MEL-5 melanoma", "yes"],
  ["O=C(N=Nc1c(O)[nH]c2ccc([N+](=O)[O-])cc12)c1ccc2nc(-c3ccccc3)[nH]c2c1", "SK-MEL-5 melanoma", "no"],
  ["CN(C)CCOc1ccc(C(=O)C2[C@H](c3ccc(Cl)cc3)[C@@H](c3ccccc3)NC23C(=O)Nc2ccccc23)cc1 (stereo not given in full)", "SK-MEL-5 melanoma", "no"],
  ["O=c1oc2ccccc2cc1-c1csc(N2N=C(c3ccccc3)CC2c2ccc(N3CCOCC3)cc2)n1 (stereo not given)", "SK-MEL-5 melanoma", "no"],
  ["Cn1nc(C(F)(F)F)cc1-c1cc(Cl)c(COc2ccc(Cl)cc2)c(-c2ccc(Cl)c(C(F)(F)F)c2)c1O", "SK-MEL-5 melanoma", "yes"],
  ["COc1cccc(-c2c(C#N)c(-c3ccc(Cl)cc3)nc3n[nH]c(-c4ccc(Cl)cc4)c23)c1", "SK-MEL-5 melanoma", "no"],
  ["Brc1ccc(N/N=C/c2c[nH]c3ccc(Br)cc23)nc1", "SK-MEL-5 melanoma", "yes"],
  ["CC12CC[C@@H]3[C@]4(C)COC(c5cn[nH]c5-c5cccc(Br)c5)O[C@@H]4CC[C@@]3(C)[C@@H]1CC(C1=CCOC1=O)O2 (stereo not given in full)", "SK-MEL-5 melanoma", "yes"],
  ["C/C(=N\\N=C1/C(=O)Nc2ccc(Cl)cc21)c1ccc2c(c1)Nc1ccccc1S2", "SK-MEL-5 melanoma", "yes"],
  ["O=C(CCN1C(=O)/C(=C/c2ccc(F)cc2)SC1=S)N1CCOCC1", "SK-MEL-5 melanoma", "no"],
  ["COc1ccc2cc([C@H](C)C(=O)N/N=C/c3ccc(Br)cc3)ccc2c1", "SK-MEL-5 melanoma", "no"],
  ["COc1ccc2c(c1)c(-c1cc(N)n3nc(-c4cn(C)c5ccccc45)cc3n1)cn2C", "SK-MEL-5 melanoma", "yes"],
  ["N/C(=N\\N=C\\c1ccc([N+](=O)[O-])cc1)c1c(N)nc(=S)[nH]c1-c1ccc(Cl)cc1Cl", "SK-MEL-5 melanoma", "no"],
  ["Cc1ccc(/C=C/c2n(Cc3ccc4ccccc4c3)c3ccccc3[n+]2Cc2ccc3ccccc3c2)cc1", "SK-MEL-5 melanoma", "yes"],
  ["N/N=C(\\N)c1c(N)nc(=S)[nH]c1-c1ccc(Cl)cc1Cl", "SK-MEL-5 melanoma", "no"]
]}
